Target: NusB K2E (Escherichia coli, UniProt P0A780 1-139, K2E)
Test: fluorescence anisotropy
measurement_kind: Kd (µM)

[
  {
    "binder": "CGCUCUUAAAAAUUAA (ssRNA) [nutL BoxA-spacer]",
    "recorded_result": 5.1
  },
  {
    "binder": "CACUGCUCUUUAACAAUUA (ssRNA) [rrnG BoxA-spacer]",
    "recorded_result": 3.6
  }
]

src = paper PMC2800207
